Origin of the recorded values: paper PMC5421785

Biological target: HLA-DRB1*04:01 (Homo sapiens, UniProt P01903+P01911, A100K/A169T/F76Y/I96L/K127E/L162R/M171V/N62H/P40V/Q125Y/R42H/S133A/S149N/S66Y/V115G/V209L/W38E)
Construct: EBV transformed homozygous cell lines were used as sources of MHC molecules; endogenous in cells; host or cells: EBV transformed homozygous cell lines
Assay: HLA class II peptide binding, inhibition of radiolabeled peptide binding to purified MHC
Conditions: citrullinated 15-mer peptide (X = citrulline); purified HLA-DRB1*04:01; read-out: DRB1*04:01 binding capacity, Cit peptide (IC50 nM)
Square brackets hold non-standard residues; d marks the D form. Peptide text beside a SMILES is read from it. Cit = NC(=O)NCCC[C@H](N)C(=O)O
assayMetric: IC50
Please format your answer as a value with the unit trailing.

Q: Look up IC50 for this compound: CC[C@H](C)[C@H](NC(=O)[C@@H](NC(=O)[C@H](CCC(N)=O)NC(=O)CNC(=O)[C@H](CC(=O)O)NC(=O)[C@H](CCCNC(N)=O)NC(=O)[C@@H](NC(=O)[C@H](CCC(=O)O)NC(=O)[C@@H](NC(=O)[C@@H](NC(=O)[C@H](CCCCN)NC(=O)[C@@H](NC(=O)[C@H](CC(C)C)NC(=O)[C@H](CC(C)C)NC(=O)[C@@H](N)[C@@H](C)O)[C@@H](C)CC)[C@@H](C)O)C(C)C)[C@@H](C)O)C(C)C)C(=O)O [TLLIKTVETXDGQVI] (H-TLLIKTVET[Cit]DGQVI-OH)
Ans: 2260 nM
